// provenance: PubChem BioAssay (NCI)

- Test system: SF-268 CNS
- measurement description: NCI-60 one-dose screen, 48 h (100 = growth as untreated, 0 = no growth, -100 = all killed)
- condition context: 10 µM unless noted
About 83,000 compounds went through this panel and 20% of them were active in at least one assay; those are over-represented in the sample as a whole.
# Lookup of reported growth keyed by entry
# unit: % | format: bare number

>  <compound>
CC(C)OC(=O)[C@H](C)NP(=O)(Oc1ccccc1)C1CCCN(O)C1=O (stereo not given in full)

>  <unit text>
%

>  <growth>
93.9

$$$$
>  <compound>
CC(=O)O[C@H]1C(=O)[C@@]2(C)[C@H]([C@H](OC(=O)c3ccccc3)[C@]3(O)C[C@H](OC(=O)[C@H](OC(=O)OC[C@H]4COC(C)(C)O4)[C@@H](NC(=O)c4ccccc4)c4ccccc4)C(C)=C1C3(C)C)[C@]1(OC(C)=O)CO[C@@H]1C[C@@H]2O

>  <unit text>
%

>  <growth>
29.7

$$$$
>  <compound>
Cc1c(O)c(CN(CCCl)CCCl)cc(CN(CCCl)CCCl)c1O

>  <unit text>
%

>  <growth>
88.4

$$$$
>  <compound>
Nc1ncnc2n[nH]nc12

>  <unit text>
%

>  <growth>
81

$$$$
>  <compound>
Cc1cc(N(CCCl)CCCl)ccc1/C=N\NC(=O)c1ccncc1

>  <unit text>
%

>  <growth>
70.7

$$$$
>  <compound>
Cc1cccc(N2CCN(C(C)C#N)CC2)c1 (stereo not given)

>  <unit text>
%

>  <growth>
103

$$$$
>  <compound>
COC(=O)CC[C@H](Cc1ccccc1)NC(=O)c1csc([C@@H](C[C@H](C(C)C)N(C)C(=O)[C@@H](NC(=O)[C@H]2CCCCN2C)C(C)C)OC(C)=O)n1

>  <unit text>
%

>  <growth>
26.6

$$$$
>  <compound>
CC[C@H](C)[C@H](NC(=O)[C@H]1CCCCN1C)C(=O)N(C)[C@H](C[C@@H](O)c1nc(C(=O)N[C@@H](Cc2ccccc2)C[C@H](C)C(=O)O)cs1)C(C)C

>  <unit text>
%

>  <growth>
88.2

$$$$
>  <compound>
Clc1cc(N2CC2)nc(N2CC2)n1

>  <unit text>
%

>  <growth>
59.3

$$$$
>  <compound>
COP(=S)(N1CC1)N1CC1

>  <unit text>
%

>  <growth>
112

$$$$

Problem: Recorded growth for `CCOC(=O)[C@@H](C)C[C@H](Cc1ccccc1)NC(=O)c1csc([C@@H](C[C@H](C(C)C)N(C)C(=O)[C@@H](NC(=O)[C@H]2C[C@H](O)CCN2C)C(C)C)OC(C)=O)n1` , please?
Solution: 24.6

Problem: Field entry: `CC(=O)[C@H]1CC[C@H]2[C@@H]3CC[C@H]4C[C@H](N)CC[C@]4(C)[C@H]3CC[C@]12C`
Solution: 92

Problem: Field entry: `C/C(=C\c1cc(C(F)(F)F)nn1CCNC(=O)OC(C)(C)C)[C@@H]1C[C@@H]2O[C@]2(C)CCC[C@H](C)[C@H](O)[C@@H](C)C(=O)C(C)(C)[C@@H](O)CC(=O)O1`
Solution: 60.4

* * *

- Test system: OVCAR-5 ovarian
- measurement description: NCI-60 one-dose screen, 48 h (100 = growth as untreated, 0 = no growth, -100 = all killed)
- condition context: 10 µM unless noted
About 83,000 compounds went through this panel and 20% of them were active in at least one assay; those are over-represented in the sample as a whole.
# Lookup of reported growth keyed by entry
# unit: % | format: bare number

Problem: Hello, I am looking for reported growth with OVCAR-5 ovarian for `C1CCC2(CC1)OOCNCOO2` . Could you help?
Solution: 109
